tested on: MDA-MB-231 cells
Value type: IC50 (nM)
Answers are plain numbers, in nM.

Use the examples below as a reference point.
CC[C@H](C)[C@@H]1C(=O)O[C@H]1C(=O)N[C@H](C(=O)N[C@H](C(=O)OCC1CCCCC1)C(C)C)C(C)C [Compound 11c]; 1920
CC[C@H](C)[C@@H]1C(=O)O[C@H]1C(=O)N[C@H](C(=O)N[C@H](C(=O)OCC(C)C)C(C)C)C(C)C [Compound 11d]; 355
CC[C@H](C)[C@@H]1C(=O)O[C@H]1C(=O)N[C@@H](CC(C)C)C(=O)N[C@H](C(=O)OCc1ccccc1)C(C)C [Compound 10h]; 2080

Now look at this entry.
Asked: Give IC50 for this entry on MDA-MB-231 cells: C=CCCOC(=O)[C@@H](NC(=O)[C@@H](NC(=O)[C@@H]1OC(=O)[C@H]1[C@@H](C)CC)C(C)C)C(C)C [Compound 11g]
Given back: 361

* * *

target: yeast proteasome yβ2 subunit (Saccharomyces cerevisiae, UniProt P25043+P25451); construct: measured using 8 μg/mL of purified yCP or iCP; assay: Subunit selectivity, purified yeast proteasome yβ2; type: biochemical
Value type: pIC50
Answers are plain numbers, as −log10 of the molar value.

CC[C@H](C)[C@@H]1C(=O)O[C@H]1C(=O)N[C@H](C(=O)N[C@H](C(=O)NCc1ccccc1)C(C)C)C(C)C [Compound 11e]; 5.53

Consider now this further molecule.
Asked: Lab note: record pIC50 of CC[C@H](C)[C@@H]1C(=O)O[C@H]1C(=O)N[C@H](C(=O)N[C@H](C(=O)OCc1ccccc1)C(C)C)C(C)C tested on yeast proteasome yβ2 subunit (Saccharomyces cerevisiae, UniProt P25043+P25451).
Given back: 4.58

* * *

test system: MDA-MB-231 cells; assay: MTT assay cytotoxicity MDA-MB-231; conditions: read-out: Cytotoxicity MDA-MB-231 IC50; Table 3; MTT, 48 h
Give pIC50 for every item shown.
Give bare numbers, as −log10 of the molar value.

CC[C@H](C)[C@@H]1C(=O)O[C@H]1C(=O)N[C@@H](Cc1ccccc1)C(=O)N[C@H](C(=O)OCc1ccccc1)C(C)C [Compound 10b]; 5.46
CC[C@H](C)[C@@H]1C(=O)O[C@H]1C(=O)N[C@H](C(=O)N[C@@H](Cc1ccccc1)C(=O)OCc1ccccc1)C(C)C [Compound 10c]; 5.59
CC[C@H](C)[C@@H]1C(=O)O[C@H]1C(=O)N[C@@H](COCc1ccccc1)C(=O)N[C@H](C(=O)OCc1ccccc1)C(C)C [Compound 10j]; 5.66

We next turn to a different molecule, shown below.
Asked: // fetch pIC50 given entry CC[C@H](C)[C@@H]1C(=O)O[C@H]1C(=O)N[C@@H](Cc1ccccc1)C(=O)N[C@@H](Cc1ccccc1)C(=O)OCc1ccccc1 [Compound 10d]
Given back: 5.33

* * *

I'd be grateful if you could share measured IC50 for these entries.
system: MDA-MB-231 cells
Answers are plain numbers, in nM.

Some compounds with recorded IC50:
CC[C@H](C)[C@@H]1C(=O)O[C@H]1C(=O)N[C@H](C(=O)N[C@H](C(=O)OCc1ccccc1)C(C)C)C(C)(C)C [Compound 10e]; 1030
CC[C@H](C)[C@@H]1C(=O)O[C@H]1C(=O)N[C@H](C(=O)N[C@@H](CC(C)C)C(=O)OCc1ccccc1)C(C)C [Compound 10i]; 287

// below: IC50 requested for another compound
Asked: State its IC50: CC[C@H](C)[C@@H]1C(=O)O[C@H]1C(=O)N[C@H](C(=O)N[C@H](C(=O)OCc1ccc(Cl)cc1)C(C)C)C(C)C [Compound 11b]
Given back: 307

* * *

Target: chymotrypsin-like activity of the 26S proteasome (Homo sapiens, UniProt P28074)
Construct: endogenous in cells; host or cells: Jurkat (ATCC TIB-152, E6-1 clone) cell lysate
Sequence (P28074 60-263): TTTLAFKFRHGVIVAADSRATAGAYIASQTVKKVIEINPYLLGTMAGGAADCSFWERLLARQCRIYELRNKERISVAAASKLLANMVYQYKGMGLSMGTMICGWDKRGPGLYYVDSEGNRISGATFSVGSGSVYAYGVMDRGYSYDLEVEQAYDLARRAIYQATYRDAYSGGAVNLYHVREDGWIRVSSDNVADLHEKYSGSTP
Test: Proteasome assay, chymotrypsin-like (ChT-L) activity, Suc-LLVY-AMC, Jurkat cell lysate
Type: biochemical
Conditions: Table 2, P1 analogues; ± S.D.; read-out: Proteasome Inhibition ChT-like IC50
Value type: pIC50
One number for each entry, as −log10 of the molar value.

Examples with their reported pIC50 follow.
CC(C)C[C@@H]1C(=O)O[C@H]1C(=O)N[C@H](C(=O)N[C@H](C(=O)OCc1ccccc1)C(C)C)C(C)C [Compound 9d]; 7.80
CC(C)[C@H](NC(=O)[C@@H]1OC(=O)[C@H]1C(C)C)C(=O)N[C@H](C(=O)OCc1ccccc1)C(C)C [Compound 1]; 8.05
CC(C)[C@H](NC(=O)[C@@H]1OC(=O)[C@H]1C1CCCC1)C(=O)N[C@H](C(=O)OCc1ccccc1)C(C)C [Compound 9c]; 7.86
CC(C)[C@H](NC(=O)[C@@H]1OC(=O)[C@H]1C1CC1)C(=O)N[C@H](C(=O)OCc1ccccc1)C(C)C [Compound 9a]; 7.91

Please turn your attention to the following entry.
Asked: Provide measured pIC50 value, entry: CC(C)[C@H](NC(=O)[C@@H]1OC(=O)[C@H]1C1CCC1)C(=O)N[C@H](C(=O)OCc1ccccc1)C(C)C [Compound 9b]
Given back: 7.58

Values were extracted from patent US11396497B2.
